Where a name gives a salt, the structure may show the parent alone.
Experimental readout: melting point

>  <Compound>
CN(C(=O)Cc1ccc(Cl)c(Cl)c1)[C@@H]1c2cc(N(CC(=O)O)CC(=O)O)ccc2CC[C@H]1N1CCCC1 (relative stereo) (as salt: HCl)

>  <Endpoint value>
160 °C (dec.)

$$$$
>  <Compound>
COc1cc(CC(=O)N(C)[C@H](CN2CCCC2)c2ccccc2)c(S(=O)(=O)N2CCCC2)cc1OC (as salt: HCl) [Example 134]

>  <Endpoint value>
240 to 242 °C

$$$$
>  <Compound>
COc1cc(CC(=O)N(C)[C@H](CN2CCCC2)c2ccccc2)c(S(=O)(=O)N(C)CC(=O)O)cc1OC (as salt: HCl) [Example 142]

>  <Endpoint value>
231 to 233 °C (dec.)

$$$$

---

Listed next: entries and their corresponding melting point.
Where a name gives a salt, the structure may show the parent alone.

>  <Compound>
CN(C(=O)Cc1ccc(Cl)c(Cl)c1)[C@H](CN1CCCC1)c1cccc(NS(N)(=O)=O)c1 (racemic) (as salt: hydrochloride) [Example 3c]

>  <melting point>
198 to 200 °C

$$$$
>  <Compound>
CN(C(=O)Cc1ccc(C(F)(F)F)cc1)[C@H](CN1CCCC1)c1cccc(NS(C)(=O)=O)c1.Cl [Example 3d]

>  <melting point>
173 to 175 °C

$$$$
>  <Compound>
CNS(=O)(=O)c1cc(CC(=O)N(C)[C@@H]2CCCC[C@H]2N2CCCC2)ccc1F.Cl (racemic) [Example 4i]

>  <melting point>
265 to 267 °C

$$$$
>  <Compound>
CN(C(=O)Cc1ccccc1C(=O)O)[C@H](CN1CCCC1)c1ccccc1.Cl [Example 3kk]

>  <melting point>
230 to 232 °C (dec.)

$$$$
>  <Compound>
CN(C(=O)Cc1ccccc1NCC(=O)O)C1CCCCC1N1CCCC1 (stereo not shown) (as salt: HCl)

>  <melting point>
212 to 214 °C (dec.)

$$$$
>  <Compound>
CC(C)C(=O)Nc1cccc([C@@H](CN2CCCC2)N(C)C(=O)Cc2ccccc2NC(=O)C(C)C)c1 (as salt: sulfonic acid salt) [Example 3qq]

>  <melting point>
143 to 145 °C

$$$$
>  <Compound>
COc1cc2c(cc1S(=O)(=O)N(C)Cc1ccccc1)[C@@H](N(C)C(=O)Cc1ccc(Cl)c(Cl)c1)[C@H](N1CCCC1)CC2 (racemic) (as salt: HCl)

>  <melting point>
150 °C (dec.)

$$$$

---

# Test system: formalin-induced flinching
# Method summary: animal or person
# Assay type: in vivo, male Sprague-Dawley rats
# Experimental context: rat, in vivo
Structures can show the parent of a compound that is named as a salt.

>  <Molecule>
COC(=O)N1CCN(C(=O)Cc2ccccc2[N+](=O)[O-])C(CN2CCCC2)C1 (racemic) [(R,S-9d), hydrochloride]

>  <Late Phase Formalin, % @ 300; i.paw [% @ 300]>
93

$$$$
>  <Molecule>
Cl.O=C(Cc1ccc(Cl)c(Cl)c1)N1CCNC[C@@H]1CN1CCCC1 [(R-2)]

>  <Late Phase Formalin, % @ 300; i.paw [% @ 300]>
57

$$$$
>  <Molecule>
O=C(Cc1ccc(Cl)c(Cl)c1)N1CCN(C(=O)C(F)(F)F)C[C@H]1CN1CCCC1 [(R-3h), hydrochloride]

>  <Late Phase Formalin, % @ 300; i.paw [% @ 300]>
94

$$$$
>  <Molecule>
CC(=O)N1CCN(C(=O)Cc2ccc(Cl)c(Cl)c2)[C@H](CN2CCCC2)C1.Cl [(R-3f)]

>  <Late Phase Formalin, % @ 300; i.paw [% @ 300]>
95

$$$$
>  <Molecule>
COC(=O)N1CCN(C(=O)Cc2ccc(C(F)(F)F)cc2)C(CN2CCCC2)C1 (racemic) [(R,S-9b), hydrochloride]

>  <Late Phase Formalin, % @ 300; i.paw [% @ 300]>
98

$$$$
>  <Molecule>
O=C(Cc1ccc(C(F)(F)F)cc1)N1CCN(Cc2ccccc2)CC1CN1CCCC1 (stereo not drawn) [(R.S-11)]

>  <Late Phase Formalin, % @ 300; i.paw [% @ 300]>
92

$$$$
>  <Molecule>
Cl.NC(=O)N1CCN(C(=O)Cc2ccc(Cl)c(Cl)c2)[C@H](CN2CCCC2)C1 [(R-3i)]

>  <Late Phase Formalin, % @ 300; i.paw [% @ 300]>
68

$$$$
>  <Molecule>
Cl.Cl.O=C(O)CN1CCN(C(=O)Cc2ccc(Cl)c(Cl)c2)[C@H](CN2CCCC2)C1 [(R-3c)]

>  <Late Phase Formalin, % @ 300; i.paw [% @ 300]>
26

$$$$
>  <Molecule>
Cl.O=CN1CCN(C(=O)Cc2ccc(Cl)c(Cl)c2)[C@H](CN2CCCC2)C1 [(R-3j)]

>  <Late Phase Formalin, % @ 300; i.paw [% @ 300]>
65

$$$$
>  <Molecule>
CC(=O)N1CCN(C(=O)Cc2ccc(C(F)(F)F)cc2)C(CN2CCCC2)C1 (racemic) [(R,S-10b), hydrochloride]

>  <Late Phase Formalin, % @ 300; i.paw [% @ 300]>
89

$$$$
>  <Molecule>
COC(=O)N1CCN(C(=O)Cc2c[nH]c3ccccc23)C(CN2CCCC2)C1 (racemic) [(R,S-9c), hydrochloride]

>  <Late Phase Formalin, % @ 300; i.paw [% @ 300]>
95

$$$$
>  <Molecule>
COC(=O)N1CCN(C(=O)Cc2ccc(S(C)(=O)=O)cc2)C(CN2CCCC2)C1 (racemic) [(R,S-9a), hydrochloride]

>  <Late Phase Formalin, % @ 300; i.paw [% @ 300]>
46

$$$$
>  <Molecule>
CS(=O)(=O)N1CCN(C(=O)Cc2ccc(C(F)(F)F)cc2)C(CN2CCCC2)C1 (racemic) [(R,S-8d), hydrochloride]

>  <Late Phase Formalin, % @ 300; i.paw [% @ 300]>
97

$$$$
>  <Molecule>
Cc1ccc(S(=O)(=O)N2CCN(C(=O)Cc3ccc(Cl)c(Cl)c3)[C@H](CN3CCCC3)C2)cc1 [(R-3l), hydrochloride]

>  <Late Phase Formalin, % @ 300; i.paw [% @ 300]>
24

$$$$
>  <Molecule>
COC(=O)N1CCN(C(=O)Cc2ccccc2N)C(CN2CCCC2)C1 (racemic) [(R,S-9f), dihydrochloride]

>  <Late Phase Formalin, % @ 300; i.paw [% @ 300]>
97

$$$$
>  <Molecule>
COC(=O)N1CCN(C(=O)Cc2ccccc2OC)C(CN2CCCC2)C1 (racemic) [(R,S-9e), hydrochloride]

>  <Late Phase Formalin, % @ 300; i.paw [% @ 300]>
98

$$$$
>  <Molecule>
Cl.O=C(Cc1ccc(Cl)c(Cl)c1)N1CCN(Cc2ccccc2)C[C@H]1CN1CCCC1 [(R-1)]

>  <Late Phase Formalin, % @ 300; i.paw [% @ 300]>
53

$$$$
>  <Molecule>
CCOP(=O)(OCC)N1CCN(C(=O)Cc2ccc(Cl)c(Cl)c2)[C@H](CN2CCCC2)C1 [(R-3g), hydrochloride]

>  <Late Phase Formalin, % @ 300; i.paw [% @ 300]>
54

$$$$
>  <Molecule>
CS(=O)(=O)N1CCN(C(=O)Cc2ccc(Cl)c(Cl)c2)C(CN2CCCC2)C1 (racemic) [(R,S-8a), hydrochloride]

>  <Late Phase Formalin, % @ 300; i.paw [% @ 300]>
96

$$$$
>  <Molecule>
CC(=O)N1CCN(C(=O)Cc2ccc(S(C)(=O)=O)cc2)C(CN2CCCC2)C1 (racemic) [(R,S-10a), hydrochloride]

>  <Late Phase Formalin, % @ 300; i.paw [% @ 300]>
6

$$$$

---

# Assayed system: cloned human kappa receptor (Homo sapiens)
# Sequence (P41145 whole entry): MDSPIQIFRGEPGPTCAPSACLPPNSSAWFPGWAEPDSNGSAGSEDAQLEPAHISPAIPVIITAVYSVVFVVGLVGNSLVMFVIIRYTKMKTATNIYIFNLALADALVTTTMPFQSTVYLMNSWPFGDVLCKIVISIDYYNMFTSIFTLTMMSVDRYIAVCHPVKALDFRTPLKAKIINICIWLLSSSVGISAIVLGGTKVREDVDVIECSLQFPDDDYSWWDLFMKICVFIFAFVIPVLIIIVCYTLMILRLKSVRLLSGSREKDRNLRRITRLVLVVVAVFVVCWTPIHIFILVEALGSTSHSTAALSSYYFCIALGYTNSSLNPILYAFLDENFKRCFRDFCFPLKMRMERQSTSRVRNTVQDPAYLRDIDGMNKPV
# Method summary: biochemical
# Format: binding
# Experimental context: Ki (nM) [3H] Diprenorphin κ
Experimental readout: Ki (nM)

>  <Smiles representation>
CN(C(=O)Cc1ccc(Cl)c(Cl)c1)[C@H]1c2cc(NC(=O)/C=C\C(=O)O)ccc2CC[C@@H]1N1CCCC1

>  <Experimental readout>
Ki

>  <Endpoint value>
28

$$$$

---

Listed next: entries and their corresponding Ki.
# Assayed system: cloned human kappa receptor (Homo sapiens)
# Method summary: biochemical
# Format: binding
# Experimental context: Ki (nM) [3H]-Diprenorphin κ
Counter-ions that a name gives are not always drawn.
Experimental readout: Ki (nM)

>  <Compound>
CN(C(=O)Cc1ccc(C(F)(F)F)cc1)[C@H](CN1CCCC1)c1cccc(NS(C)(=O)=O)c1.Cl [Example 3d, hydrochloride]

>  <Assayed system>
cloned human kappa receptor (Homo sapiens)

>  <Experimental readout>
Ki

>  <Reading unit>
nM

>  <Endpoint value>
0.28

$$$$
>  <Compound>
CC(C)COC(=O)CNC(=O)CCC(=O)Nc1cccc([C@@H](CN2CCCC2)N(C)C(=O)Cc2ccc(Cl)c(Cl)c2)c1 [Example 3i, hydrochloride]

>  <Assayed system>
cloned human kappa receptor (Homo sapiens)

>  <Experimental readout>
Ki

>  <Reading unit>
nM

>  <Endpoint value>
0.14

$$$$
>  <Compound>
COc1cc(CC(=O)N(C)[C@H](CN2CCCC2)c2ccccc2)c(S(=O)(=O)N2CCCC2)cc1OC [Example 134]

>  <Assayed system>
cloned human kappa receptor (Homo sapiens)

>  <Experimental readout>
Ki

>  <Reading unit>
nM

>  <Endpoint value>
0.26

$$$$
>  <Compound>
CN(C(=O)Cc1ccc(C(F)(F)F)cc1NS(C)(=O)=O)[C@H](CN1CC[C@H](O)C1)c1ccccc1 [Example 126]

>  <Assayed system>
cloned human kappa receptor (Homo sapiens)

>  <Experimental readout>
Ki

>  <Reading unit>
nM

>  <Endpoint value>
0.61

$$$$
>  <Compound>
COc1cc(CC(=O)N(C)[C@H](CN2CC[C@H](O)C2)c2ccccc2)c(S(=O)(=O)N2CCCC2)cc1OC [Example 135]

>  <Assayed system>
cloned human kappa receptor (Homo sapiens)

>  <Experimental readout>
Ki

>  <Reading unit>
nM

>  <Endpoint value>
0.66

$$$$
>  <Compound>
CN(C(=O)Cc1cc2c(cc1S(=O)(=O)N(C)C)OCO2)[C@H](CN1CCCC1)c1ccccc1 [Example 132]

>  <Assayed system>
cloned human kappa receptor (Homo sapiens)

>  <Experimental readout>
Ki

>  <Reading unit>
nM

>  <Endpoint value>
0.25

$$$$
